B1: POU domain, class 2, transcription factor 1, residues 285 to 354; numbered along this chain, P14859 (parent)
chain: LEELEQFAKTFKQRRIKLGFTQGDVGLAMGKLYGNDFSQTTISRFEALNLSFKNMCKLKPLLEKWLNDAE

variants of: B1; experiment: abundance fitness (aPCA) (normalised: wild type 0, dead -1); higher = more abundant; growth selection in yeast, the domain comes from the species named; conditions: Homo sapiens
I would appreciate it if you labelled entries yes when abundance fitness is -0.07 or higher, otherwise no.

LEELEQFDKTFKQRRIKLGFTQGDVGLAMGKLYGNDFSQTTISRFEALNLSFKNMCKLKPLLEKWLNDAE [A8D] ... no
LEELEQFAKTFKQRRIKLGFTQGDVGLAMGKLYWNDFSQTTISRFEALNLSFKNMCKLKPLLEKWLNDAE [G34W] ... no
LEELEQFAKTFKQRRIKLGFTQGDVGLAMGKLYGNDFSQTCISRFEALNLSFKNMCKLKPLLEKWLNDAE [T41C] ... no
LEELEQFAKTFKQRRIKLGFTQGDVGLAMGKLYGNDFSQTTISRFEALNLNFKNMCKLKPLLEKWLNDAE [S51N] ... no
LEELEQFAKTFKQRAIKLGFTQGDVGLAMGKLYGNDFSQTTISRFEALNLSFKNMCKLKPLLEKWLNDAE [R15A] ... no
LEELEQFAKTFKQRRIKAGFTQGDVGLAMGKLYGNDFSQTTISRFEALNLSFKNMCKLKPLLEKWLNDAE [L18A] ... yes
LEELEQFAKTFKQRRIKLGFTQGDVGLAMGKLYGNDFSQTTISRFEALNLSFKNMCKLKPKLEKWLNDAE [L61K] ... yes
LEELEQFAKTFKQRRIKLGFTQGDVGLAMGKLYGNDFSQTTISRFEALNLAFKNMCKLKPLLEKWLNDAE [S51A] ... yes
LEELEQFAKTFKQRRIKLGFTQGDVGLNMGKLYGNDFSQTTISRFEALNLSFKNMCKLKPLLEKWLNDAE [A28N] ... yes
